Hey, just so you know, these numbers are from the supplement of paper PMC4466140.

- assay target: AgBem1-D1
- procedure text: SPOT peptide array binding signal intensity (averaged, normalized) (arbitrary units (background-subtracted, floor 0; scale differs between SH3 domains)); higher = stronger binding of the SH3 domain to the peptide
property measured: SPOT peptide array binding signal intensity
Would you mind answering with just the numeric figure?

binder: ILARAILTIPRVLDK
readout number: 162

In: What measured SPOT peptide array binding signal intensity goes with KTRLRPAFIQQLWSS ?
Out: 181

In: Another binder to look at: PPIPNAPLSPAPAVP
Out: 18.5

In: Another binder to look at: VQQDSLPKLPFRSWG
Out: 3.5
